// provenance: ChEMBL document CHEMBL1157393

Tested on: LNCaP
Experiment: Antiproliferative activity against human LNCaP 1740 cells assessed as cell growth after 4 days by sulforhodamine B assay
Format: functional, cell-based
Conditions: 96 h
pIC50: −log10 of the molar value.

{"columns": ["SMI", "pIC50"],
 "data": [
  ["CCCCC[C@H]1OC(=O)c2ccc(OC)cc2[C@H]1OC(C)=O", 4.24]
]}
